The reported numbers originate from paper PMC9407945.

In this section we review reported pKd values for a set of binders.
- experimental target: SARS-CoV-2 spike ectodomain (S-ecto), Wuhan-hu-1, 2P (SARS-CoV-2, Wuhan-hu-1, UniProt P0DTC2, 2P mutation at residues 986 and 987, biotinylated (EZ-link NHS-sulfo-LC-Biotin) for the BLI assay)
- assay procedure: BLI
- condition parameters: both partners purified
pKd: −log10 of the molar value.

binder	pKd
SW186 Fab (Fab, V domains shown) VH: QVQLQQSGAELVKPGASVKISCKASGVAFSSYWMNWVKQRPGKGLEWIGQIYPGDGDTNYNGKFKGKATLTADKSSSTAYMQLSSLSSEDSAVYFCARGFIATVEETMDYWGQGTSVTVSS VL: DIQMTQTTSSLSASLGDRVTISCRASQDISNYLNWYQQKPDGTVKLLIYYTSRLHSGVPSRFSGSGSGTDYSLTISNLEQEDIATYFCQQSHTLPWTFGGGTKLEIK	8.96
humanized SW186 H4L2 (antibody, V domains shown) VH: QVQLVQSGAEVKKPGSSVKVSCKASGVAFSSYWMNWVKQAPGQGLEWIGQIYPGDGDTNYNGKFKGKATITADKSTSTAYMELSSLRSEDTAVYFCARGFIATVEETMDYWGQGTLVTVSS VL: DIQMTQSPSSLSASVGDRVTITCRASQDISNYLNWYQQKPGKAPKLLIYYTSRLHSGVPSRFSGSGSGTDFTLTISSLQPEDFATYFCQQSHTLPWTFGGGTKLEIK	8.23
humanized SW186 H3L3 (antibody, V domains shown) VH: QVQLVQSGAEVKKPGSSVKVSCKASGVAFSSYWMNWVRQAPGQGLEWIGQIYPGDGDTNYNGKFKGRATITADKSTSTAYMELSSLRSEDTAVYFCARGFIATVEETMDYWGQGTLVTVSS VL: DIQMTQSPSSLSASVGDRVTITCRASQDISNYLNWYQQKPGKAPKLLIYYTSRLHSGVPSRFSGSGSGTDYTLTISSLQPEDFATYFCQQSHTLPWTFGGGTKLEIK	8.24
